- tested_target: recombinant KPC-2 (Klebsiella pneumoniae, UniProt Q9F663)
- Construct: made in house; host or cells: E. coli BL21 (DE3)
- Sequence (Q9F663 25-293, looked up): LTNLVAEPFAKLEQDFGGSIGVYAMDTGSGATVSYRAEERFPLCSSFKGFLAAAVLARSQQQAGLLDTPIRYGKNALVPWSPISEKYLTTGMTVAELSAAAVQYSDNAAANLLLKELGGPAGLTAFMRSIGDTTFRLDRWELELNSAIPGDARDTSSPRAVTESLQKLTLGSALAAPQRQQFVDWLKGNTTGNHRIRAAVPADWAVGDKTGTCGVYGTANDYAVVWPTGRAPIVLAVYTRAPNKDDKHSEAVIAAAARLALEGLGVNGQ
- assay_text: KPC-2 inhibition assay, CENTA as reporter substrate
- Assay type: biochemical
- stated_conditions: CENTA 100 μM; after 10' incubation of the inhibitor with KPC-2; read-out: IC50
- Method: The blaKPC-2 gene was kindly provided by Prof. Sergei Vakulenko (University of Notre Dame du Lac, Indiana, USA) and cloned as already reported and transformed into competent E.coli BL21 (DE3) cells for protein expression. […] 4 mL of the overnight culture was used to inoculate 1.3 L of TSB (50 mg/L kanamycin) grown at 37°C with shaking to an optical density of 0.5 measured at 600 nm. […] Competitive inhibition mechanism and the Ki for compound 9a was determined by Lineweaver–Burk (LB) and Dixon plots.
pIC50: −log10 of the molar value.
value_kind: pIC50

> print(dat)
                                   compound  rel  recorded.number
1  O=C(Nc1cccc(-c2nn[nH]n2)c1)c1cccs1 [10a]    =             4.15
2      CN(Cc1cnccn1)Cc1cccc(C(=O)O)n1 [23a]    <             3.00
3  O=C(Nc1cccc(-c2nnn[nH]2)c1)c1cccc(F)c1 [11a]    =             4.44
4       CCOc1cc(C(=O)O)nc2ccc(OC)cc12 [20a]    <             3.30
5        Brc1cc2c(cc1-c1nnn[nH]1)OCO2 [12a]    =             3.15
6                   COc1ccc2nc(C(=O)O)sc2c1    =             3.82
